Experiment: A549 lung cancer cell viability effects, profiling panel, resazurin fluorescence, 24 h, PK04 Diversity Set (AID 1171); also: test concentration not given here
Conditions: higher = more signal, called active from +8 up or from −8 down
z-score for assorted molecules
Form rule: numeric answer, no unit written next to it.

Task: Dear colleague, I am looking for the recorded z-score of the following molecule: CCOC(=O)C1=CC[C@@H](c2ccccc2)N(S(=O)(=O)C[Si](C)(C)C)[C@H]1c1ccccc1
Output: 0.946

Task: Let us now turn to CCCC=C(CCC)[C@@H](NC(=O)c1ccco1)c1ccc(C(=O)OC)cc1
Output: 6.91

Task: Let us now turn to NCCCC[C@@H]1NC(=O)[C@H]2C[C@@H](C(=O)O)[C@@H](c3cccc(OCCO)c3)N2C1=O
Output: 0.506

Task: Let us now turn to NC(=O)[C@@]1(CCS(=O)(=O)c2ccccc2)COC(c2ccc(OCCCO)cc2)=N1
Output: -0.721

Task: Let us now turn to CC(C)(C)OC(=O)CC[C@]1(C(=O)N2CCOCC2)N=C(c2ccc(OCCCO)cc2)O[C@H]1c1ccccc1CN=[N+]=[N-]
Output: 0.734

Task: Let us now turn to CCCCC(=C=CC[C@H](O)c1ccc(OCCO)cc1)C[C@H](O)c1ccccn1
Output: 1.07

Task: Let us now turn to CCCCC(=C=CC[C@@H](O)c1ccc(OCCO)cc1)C[C@@H](O)c1ccccn1
Output: -0.477

Task: Let us now turn to COCCOC(=O)N1C(=O)[C@@]2(c3cc(C#Cc4ccc(OC)cc4)ccc31)[C@H](c1ccc(OCCO)cc1)N1[C@H](c3ccccc3)[C@H](c3ccccc3)OC(=O)[C@H]1[C@@H]2C(=O)N1CCCCCCC1
Output: -0.436

Task: Let us now turn to CN(C)CCCNC(=O)[C@@]1(Cc2ccccc2I)c2ccccc2C(=O)N(Cc2ccccc2)[C@H]1c1ccc(CO)cc1
Output: -3.32

Task: Let us now turn to CC(C)[C@@H](C(=O)O)n1cc(-c2ccccc2)nn1
Output: -0.423

Task: Let us now turn to C=CCOC(=O)[C@H]1[C@@H]2C(=O)O[C@@H](c3ccccc3)[C@@H](c3ccccc3)N2[C@@H](c2ccc(OCCOC(=O)[C@@H]3C[C@@H]4C(=O)N[C@@H](CC(C)C)C(=O)N4[C@@H]3c3ccc(O)cc3)cc2)[C@]12C(=O)Nc1ccc(I)cc12
Output: -0.629

Task: Let us now turn to COc1cccc(OC)c1C(=O)O[C@H]1[C@@H]2OC(=O)[C@H](Cc3cccc(Br)c3)C/C=C/C[C@@H](Cc3cccc(Br)c3)C(=O)O[C@H]2[C@@H](OC)O[C@@H]1CO
Output: -0.952

Task: Let us now turn to CCCC=C(CCC)[C@@H](NS(=O)(=O)c1ccc(Cl)cc1)c1ccccc1
Output: 2.17

Task: Let us now turn to C=C(CCCC)/C(=C/C[C@H](OC(C)=O)c1cccc(OCCO)c1)c1cc(C(=O)OC)ccc1OC
Output: 2.7

Task: Let us now turn to C[C@@H](OCc1ccccc1)C1NC(=O)[C@@]23C(=O)N[C@@H](Cc4ccccc4)C2[C@H](C)[C@@]2(C)O[C@H]2C3/C=C/C/C=C\CNC(=O)[C@H](Cc2ccccc2)NC1=O (some centres not stated)
Output: -0.792

Task: Let us now turn to COCCOC(=O)N1C(=O)[C@@]2(c3cc(C#CC4(O)CCCCCC4)ccc31)[C@H](c1ccccc1OCCO)N1[C@H](c3ccccc3)[C@H](c3ccccc3)OC(=O)[C@H]1[C@@H]2C(=O)N1CCCCCCC1
Output: -0.141
